experiment: Cytotoxicity against human Daudi cells by DNA hybridization assay; format: cell-based
Listed compounds paired with reported CC50

Nc1ncnc2c1ncn2/C=C1/CC1(F)CO (centres undefined) : > 213 µM
Nc1nc2c(ncn2/C=C2/CC2(F)CO)c(=O)[nH]1 (centres undefined) : > 199 µM
Nc1ncnc2c1ncn2/C=C1\CC1(F)CO (centres undefined) : > 209 µM

Moving on to the next compound.
Give the reported value of CC50 for this record: Nc1nc2c(ncn2/C=C2\CC2(F)CO)c(=O)[nH]1 (centres undefined)
> 199 µM

---

assay: Cytotoxicity against human Huh7 AVA5 cells; format: cell-based, Huh-7
measured-attribute: CC50 (µM)
Report as a plain number; the unit µM is understood.

Give the reported value of CC50 for this record: Nc1ncnc2c1ncn2/C=C1/CC1(CO)CF (stereo unspecified)
11

---

Listed compounds paired with reported EC50
system: Human gammaherpesvirus 4; assay: Antiviral activity against Epstein-Barr virus infected in human daudi cells by viral capsid immunofluorescence ELISA; format: functional, organism-based; details: human gammaherpesvirus 4, Daudi

Nc1ncnc2c1ncn2/C=C1\CC1(F)CO (configuration not stated) : 2.3 µM

Give the reported value of EC50 for this record: Nc1nc2c(ncn2/C=C2\CC2(F)CO)c(=O)[nH]1 (configuration not stated)
< 0.32 µM
